B1: Dystrobrevin alpha, residues 235 to 294; numbered along this chain, Q9Y4J8 (parent)
chain: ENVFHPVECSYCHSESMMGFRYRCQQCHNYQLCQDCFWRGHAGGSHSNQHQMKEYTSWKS

Variants of: B1
ASSAY_REMARKS: abundance fitness (aPCA) (normalised: wild type 0, dead -1); higher = more abundant; growth selection in yeast, the domain comes from the species named
EXPERIMENTAL_CONDITIONS: Homo sapiens
METRIC_NAME: abundance fitness
I'd appreciate a reply containing only the number, no unit.

| VARIANT_KEY | QUANTITATIVE_READOUT |
| --- | --- |
| S10N | -0.183 |

Dear colleague, I am looking for the recorded abundance fitness of the following variant: M52E
-0.567

Dear colleague, I am looking for the recorded abundance fitness of the following variant: C24M
-0.731

Dear colleague, I am looking for the recorded abundance fitness of the following variant: H50D
-0.411

Dear colleague, I am looking for the recorded abundance fitness of the following variant: Y30A
-0.398

Dear colleague, I am looking for the recorded abundance fitness of the following variant: R23H
0.201

Dear colleague, I am looking for the recorded abundance fitness of the following variant: S16P
-0.029

Dear colleague, I am looking for the recorded abundance fitness of the following variant: P6Y
-0.218

Dear colleague, I am looking for the recorded abundance fitness of the following variant: D35N
0.069

Dear colleague, I am looking for the recorded abundance fitness of the following variant: S10I
-0.588

Dear colleague, I am looking for the recorded abundance fitness of the following variant: M52R
-0.792

Dear colleague, I am looking for the recorded abundance fitness of the following variant: N48C
-0.063

Dear colleague, I am looking for the recorded abundance fitness of the following variant: N29V
-0.281

Each recorded value in this set is attributed to the Human Domainome abundance scans (Beltran et al. 2025).
